- MEASUREMENT_PROTOCOL: Toxicity liver stage against HepG2, at 10uM
- Type: cell-based
- Parameters: test concentration 10 uM, cell line HepG2-A16-CD81EGFP
- TEST_SETTINGS: human, HepG2-A16-CD81EGFP cells; read-out: INHIBITION
MEASURED_ATTRIBUTE: cytotoxicity at 10 µM (%)
// return numeric value only (unit: %, not printed)

// below: answered compounds
- COMPOUND: "O=C(NCc1ccco1)[C@H]1C[C@@H]2CCN(c3nncs3)C[C@H]2O1"
  cytotoxicity at 10 µM / %: 1.84
- COMPOUND: "O=C(C1CCC1)N1C[C@H]2CNC[C@H]2C1"
  cytotoxicity at 10 µM / %: -4.1
- COMPOUND: "CCN(CC)C(=O)c1c(Cl)cnn1CC"
  cytotoxicity at 10 µM / %: -12.3
- COMPOUND: "Cc1nn(C)c(C)c1C(=O)N1CCN(C(=O)CCC2CCCCC2)CC1"
  cytotoxicity at 10 µM / %: -5.47
- COMPOUND: "Cc1noc(CN(Cc2cccs2)C2CCS(=O)(=O)C2)n1 (stereo unspecified)"
  cytotoxicity at 10 µM / %: -3.21
- COMPOUND: "COCCNC(=O)c1nn(-c2cccc(C(C)C)c2)cc1O"
  cytotoxicity at 10 µM / %: -2.35
- COMPOUND: "c1cc(-c2nc3c(c(NCCn4ccnn4)n2)CCNCC3)ccn1"
  cytotoxicity at 10 µM / %: -56.4
- COMPOUND: "CC1CCN(C(=O)C2CC(=O)N(c3cnn(C(C)C)c3)C2)CC1 (stereo unspecified)"
  cytotoxicity at 10 µM / %: -0.343
- COMPOUND: "O=C1C(N2CCOCC2)CCCN1Cc1cccc(C(F)(F)F)c1 (stereo unspecified)"
  cytotoxicity at 10 µM / %: 0.174
- COMPOUND: "Cc1nc(C)c(CC(=O)Nc2nnc(C3CC3)s2)c(=O)[nH]1"
  cytotoxicity at 10 µM / %: -11.2

IN: Suppose we examine the compound O=C1COc2ccc(C(=O)NS(=O)(=O)c3ccc(F)cc3F)cc2N1 ; what cytotoxicity at 10 µM value has been reported?
OUT: -4.72
